Experiment: in vitro
Set-up: Viability of infected HeLa host cells, resazurin conversion, bulk resorufin fluorescence relative to DMSO
Conditions: human, hela cells; bulk resorufin, mean of 3
MEASUREMENT LABEL: viability at 28.5 h, 30 µM (%)
State the answer as a number, implicitly in %.

# COMPOUND, viability at 28.5 h, 30 µM, %
records = [
    ("COc1ccc2cc3c(nc2c1)OC(=O)N(CC1CC1)C3 [c32e]", 85.4),
]

Query block: Which viability at 28.5 h, 30 µM is listed for Oc1ccccc1Nc1nc(NC2CCCC2)c2ccccc2n1 [c49e] ?
Result block: 77.3

Query block: Try the compound CCOc1ccc2nc(NC(=N)N)nc(C)c2c1 [c37e]
Result block: 55.2

Query block: Try the compound O=C(Nc1ccccc1N1CCCNCC1)c1ccc2ccccc2c1 [c29e]
Result block: 112

Query block: Try the compound CC(=O)Nc1ccc(-c2cccc(COC3CCN(C(=O)c4ccc(OC(C)C)cc4)CC3)c2)cc1 [c36e]
Result block: 116

###

Assay: in vitro
Settings: human, hela cells, % viability
With a cut-off of 90%, any viability at 28.5 h, 10 µM strictly below it is called 1; any viability at 28.5 h, 10 µM meeting it or above is called 0.

# COMPOUND, QUALITATIVE LABEL
data = [
    ("CC(C)(C)c1ccnc(N[C@H]2CO[C@H]3[C@@H]2OC[C@@H]3NC(=O)c2cccs2)n1", 0),
    ("O=[N+]([O-])c1ccc(NCCCNS(=O)(=O)c2ccc3ccccc3c2)c(Cl)c1", 1),
    ("O=C(O)CC1OC(=O)c2cc3c(cc21)C(=O)OC3CC(=O)O (stereo not shown)", 0),
    ("COc1ccc2[nH]cc(CC(=O)N3CCCC4(CCN(C(=O)c5ccc(OC)c(OC)c5)C4)C3)c2c1 (stereo not shown)", 1),
    ("Cn1c(=O)c2c(nc(CN3CCCCC3)n2CCN2CCOCC2)n(C)c1=O", 0),
]

Query block: Take the compound `CCOc1cc(C)c(Cl)cc1S(=O)(=O)NCc1ccccn1` and say whether its viability at 28.5 h, 10 µM is less than 90%.
Result block: 0

Query block: Try the compound O=C(NCCN1CCC(O)(c2cccc(F)c2)CC1)C1CC=CCC1 (stereo not shown)
Result block: 0

###

Assay: in vitro
Conditions: human, hela cells, % viability
MEASUREMENT LABEL: viability at 28.5 h, 10 µM (%)
State the answer as a number, implicitly in %.

Guide cases for viability at 28.5 h, 10 µM, answers given:
# MOLECULE, UNIT ABBREV, viability at 28.5 h, 10 µM
records = [
    ("O=C(NC(NC1CCS(=O)(=O)C1)C(Cl)(Cl)Cl)c1ccc(Br)cc1 (centres unmarked) [CBK261091]", "%", 98.2),
    ("COc1ccc(CCN(C)Cc2ccccn2)cc1OC [CBK261912]", "%", 88.8),
    ("Cc1ccc(C)c(NC(=O)c2sc3cc(C)ccc3c2Cl)c1 [CBK263648]", "%", 90.3),
    ("Cc1c(C(=O)O)sc2nc(SC/C=C/c3ccccc3)nc(N)c12 [CBK300523]", "%", 83.4),
    ("O=C(CCn1ccc2ccncc21)NCCc1c[nH]c2ccccc12 [CBK284760]", "%", 99),
    ("CCOc1ccc(-c2ccnc(N3CCCC(C)(O)C3)n2)cc1C(=O)O (centres unmarked) [CBK307652]", "%", 117),
]

Query block: Which viability at 28.5 h, 10 µM is listed for N#Cc1ccc(CN2CCCN(C(=O)c3cccc(F)c3)CC2)cc1 [CBK304010] ?
Result block: 96.2

Query block: Try the molecule Cc1nn(Cc2ccccc2)c(C)c1CC(=O)NCCn1ccnc1 [CBK282095]
Result block: 107

Query block: Try the molecule O=C1Cc2cc3ccccc3cc2C2(CCN(C(=O)c3ccccc3C(=O)O)CC2)N1 [CBK047216]
Result block: 94.8

Query block: Try the molecule Cc1nc(C)c(-c2csc(Nc3ccc(O)cc3C)n2)s1 [CBK267346]
Result block: 98.7

Query block: Try the molecule CN(C)c1nc2n(c(=O)n1)CCS2 [CBK019025]
Result block: 92.3

Query block: Try the molecule CCOc1ccc(-c2csc(NC(=O)CC)n2)cc1 [CBK287764]
Result block: 92.5
